Tested on: rat hair loss model
Assay: Rat hair loss (androgenic alopecia) model: hair length
Assay type: in vivo, Wistar rats
Conditions: rat AGA model; external 5% tincture twice a day
Marks after values point to notes of the source that are not given here.
In this section, each of the compounds is paired with its reported 60-day hair length.

Example results:
COMPOUND: O=C(c1ccc(-c2ccccc2-c2nnn[nH]2)cc1)N(c1ncccc1Cl)[C@@H]1CCCNC1
PROPERTY MEASURED: 60-day hair length
RESULT: 17.6* mm
//
COMPOUND: O=C(c1ccc(-n2nnc3cccnc32)cc1)N(c1ncccc1Cl)[C@@H]1CCNC1
PROPERTY MEASURED: 60-day hair length
RESULT: 19.2* mm
//
COMPOUND: Nc1ccccc1-c1ccc(C(=O)N(c2ncccc2Cl)[C@@H]2CCCNC2)cc1
PROPERTY MEASURED: 60-day hair length
RESULT: 18.2* mm
//
COMPOUND: CN1CCC[C@@H](N(C(=O)c2ccc(-n3nnc4cccnc43)cc2)c2ncccc2Cl)C1
PROPERTY MEASURED: 60-day hair length
RESULT: 17.6* mm
//
COMPOUND: CNC1CCCC(N(C(=O)c2ccc(-n3nnc4cccnc43)cc2)c2ncccc2Cl)C1 (stereo not shown)
PROPERTY MEASURED: 60-day hair length
RESULT: 16.3* mm
//
COMPOUND: CCN1CCC[C@@H](N(C(=O)c2ccc(-n3nnc4cccnc43)cc2)c2ncccc2Cl)C1
PROPERTY MEASURED: 60-day hair length
RESULT: 18.9* mm

Query: I would be grateful if you could share the reported 60-day hair length for NC1CCCC(N(C(=O)c2ccc(-n3nnc4cccnc43)cc2)c2ncccc2Cl)C1 (stereo not shown) .
Result: 17.4* mm

* * *

Tested on: skin hair follicles and sebaceous glands of rats
Experiment: Rat hair loss model: histopathological grading of skin hair follicles and sebaceous glands
Format: in vivo, Wistar rats
Settings: grade ± (lesions limited); intravenous 2 mg/kg·d, 60 days; 10 rats per group
Response key: class 1 means number of rats with hair follicle and sebaceous gland grade ± >= 6; class 0 means number of rats with hair follicle and sebaceous gland grade ± < 6.

MOLECULE: Nc1ccccc1-c1ccc(C(=O)N(c2ncccc2Cl)[C@@H]2CCCNC2)cc1
LABEL VALUE: class 1

Query: Reported number of rats with hair follicle and sebaceous gland grade ± reaches at least 6 for COC1CCCC(N(C(=O)c2ccc(-n3nnc4cccnc43)cc2)c2ncccc2Cl)C1 (stereo not shown) ?
Result: class 1

Query: Item "CCN1CCC[C@@H](N(C(=O)c2ccc(-n3nnc4cccnc43)cc2)c2ncccc2Cl)C1" with number of rats with hair follicle and sebaceous gland grade ± of 6 or above?
Result: class 1

* * *

# key: entry, value: Body mass
Tested on: RA model
Experiment: Rheumatoid arthritis (RA) model (Freund's adjuvant complete)
Assay type: in vivo, Wistar rats
Settings: RA rats; gavage 10 mg/kg once a day, 21 days
Could you give me the number in g? Just the number is fine.

Illustrative cases are given below, each with its answer.
MOLECULAR STRING: O=C(c1ccc(-n2nnc3cccnc32)cc1)N(c1ncccc1Cl)[C@@H]1CCNC1
SYSTEM: RA model
Body mass / g: 363.5

MOLECULAR STRING: CN1CCC[C@@H](N(C(=O)c2ccc(-n3nnc4cccnc43)cc2)c2ncccc2Cl)C1
SYSTEM: RA model
Body mass / g: 354.5

MOLECULAR STRING: CCN1CCC[C@@H](N(C(=O)c2ccc(-n3nnc4cccnc43)cc2)c2ncccc2Cl)C1
SYSTEM: RA model
Body mass / g: 358.2

Please look at the following molecule next.
Query: # lookup: Body mass of "O=C(c1ccc(-c2ccccc2Cl)cc1)N(c1ncccc1Cl)[C@@H]1CCCNC1"
Result: 352.6

* * *

30-day hair length for assorted compounds
Test system: rat hair loss model
Experiment: Rat hair loss (androgenic alopecia) model: hair length
Type: in vivo, Wistar rats
Conditions: rat AGA model; external 5% tincture twice a day
Marks after values point to notes of the source that are not given here.

COMPOUND: CN1CCC[C@@H](N(C(=O)c2ccc(-n3nnc4cccnc43)cc2)c2ncccc2Cl)C1
SYSTEM: rat hair loss model
RESULT: 9.3* mm

Query: Item "O=C(c1ccc(-c2ccccc2Cl)cc1)N(c1ncccc1Cl)[C@@H]1CCCNC1" has what recorded 30-day hair length?
Result: 8.7* mm

Query: Field request: 30-day hair length | item: COC1CCCC(N(C(=O)c2ccc(-n3nnc4cccnc43)cc2)c2ncccc2Cl)C1 (centres unmarked)
Result: 10.2* mm

Query: Recorded 30-day hair length for "O=C(c1ccc(-c2ccccc2-c2nnn[nH]2)cc1)N(c1ncccc1Cl)[C@@H]1CCCNC1" , please?
Result: 9.4* mm

Query: # get_value(readout='30-day hair length', item= O=C(c1ccc(-n2nnc3cccnc32)cc1)N(c1ncccc1Cl)C1CCCC(O)C1 (centres unmarked) )
Result: 8.3* mm

Query: 30-day hair length; subject: "CCN1CCC[C@@H](N(C(=O)c2ccc(-n3nnc4cccnc43)cc2)c2ncccc2Cl)C1"
Result: 10.1* mm

Query: Please look up its 30-day hair length: "O=C(c1ccc(-n2nnc3cccnc32)cc1)N(c1ncccc1Cl)[C@@H]1CCNC1"
Result: 10.3* mm

Query: Entry CNC1CCCC(N(C(=O)c2ccc(-n3nnc4cccnc43)cc2)c2ncccc2Cl)C1 (centres unmarked) : reported 30-day hair length = ?
Result: 8.6* mm

* * *

System: skin hair follicles and sebaceous glands of rats
Experiment: Rat hair loss model: histopathological grading of skin hair follicles and sebaceous glands
Type: in vivo, Wistar rats
Conditions: grade +++ (most severe); external 5% tincture, 60 days; 10 rats per group
PROPERTY MEASURED: number of rats with hair follicle and sebaceous gland grade +++
Give a plain numeric answer without units written out.

// known answers, use as guide
COMPOUND: O=C(c1ccc(-n2nnc3cccnc32)cc1)N(c1ncccc1Cl)C1CCCC(O)C1 (stereo not drawn)
NUMERIC VALUE: 0
--
COMPOUND: Nc1cc(N2CCCCC2)nc(N)[n+]1[O-] [Positive control group, minoxidil, reference compound]
NUMERIC VALUE: 1

# context switch: different compound, same number of rats with hair follicle and sebaceous gland grade +++
Query: Checklist item: number of rats with hair follicle and sebaceous gland grade +++ tested on skin hair follicles and sebaceous glands of rats, entry COC1CCCC(N(C(=O)c2ccc(-n3nnc4cccnc43)cc2)c2ncccc2Cl)C1 (stereo not drawn) , value?
Result: 0

* * *

# Ear thickness listing for each entry below
Tested on: mouse eczema model
Assay: Mouse eczema model: ear thickness
Assay type: in vivo, C57BL/6 mice
Conditions: after modeling, 14th day; 0.1% cream for external use twice a day, 10 days (positive: aloxone)
Answer in mm, number only, no unit symbol.

COMPOUND: O=C(c1ccc(-n2nnc3cccnc32)cc1)N(c1ncccc1Cl)C1CCCC(O)C1 (stereo not drawn)
Ear thickness / mm: 0.323

Please examine the following record next.
Query: Fill blank: measured Ear thickness of the compound "O=C(c1ccc(-n2nnc3cccnc32)cc1)N(c1ncccc1Cl)[C@@H]1CCNC1" is ____.
Result: 0.245

* * *

System: skin hair follicles and sebaceous glands of rats
Assay: Rat hair loss model: histopathological grading of skin hair follicles and sebaceous glands
Type: in vivo, Wistar rats
Details: grade +; intravenous 2 mg/kg·d, 60 days; 10 rats per group
Below, each entry is listed with its recorded number of rats with hair follicle and sebaceous gland grade +.
// return a plain number; no unit text

COMPOUND: O=C(c1ccc(-c2ccccc2-c2nnn[nH]2)cc1)N(c1ncccc1Cl)[C@@H]1CCCNC1
NUMERIC VALUE: 2

Query: What measured number of rats with hair follicle and sebaceous gland grade + is associated with NC1CCCC(N(C(=O)c2ccc(-n3nnc4cccnc43)cc2)c2ncccc2Cl)C1 (stereo not shown) on skin hair follicles and sebaceous glands of rats?
Result: 3

Query: Fill in the recorded number of rats with hair follicle and sebaceous gland grade + for this compound, with skin hair follicles and sebaceous glands of rats as test system: "CN1CCC[C@@H](N(C(=O)c2ccc(-n3nnc4cccnc43)cc2)c2ncccc2Cl)C1"
Result: 4

Query: Provide the documented number of rats with hair follicle and sebaceous gland grade + with skin hair follicles and sebaceous glands of rats as the system for O=C(c1ccc(-n2nnc3cccnc32)cc1)N(c1ncccc1Cl)C1CCCC(O)C1 (stereo not shown)
Result: 5

Query: Observed number of rats with hair follicle and sebaceous gland grade + on skin hair follicles and sebaceous glands of rats for "CCN1CCC[C@@H](N(C(=O)c2ccc(-n3nnc4cccnc43)cc2)c2ncccc2Cl)C1" , please.
Result: 3

Query: Item: CNC1CCCC(N(C(=O)c2ccc(-n3nnc4cccnc43)cc2)c2ncccc2Cl)C1 (stereo not shown) Test system: skin hair follicles and sebaceous glands of rats Read-out: number of rats with hair follicle and sebaceous gland grade + Value: ?
Result: 4

Query: Param readout= number of rats with hair follicle and sebaceous gland grade +; system= skin hair follicles and sebaceous glands of rats; entry= "O=C(c1ccc(-c2ccccc2Cl)cc1)N(c1ncccc1Cl)[C@@H]1CCCNC1" ; returns value.
Result: 1

Query: Recorded number of rats with hair follicle and sebaceous gland grade + for "O=C(c1ccc(-n2nnc3cccnc32)cc1)N(c1ncccc1Cl)[C@@H]1CCNC1" with skin hair follicles and sebaceous glands of rats, please?
Result: 2

Query: Tell me reported number of rats with hair follicle and sebaceous gland grade + for COC1CCCC(N(C(=O)c2ccc(-n3nnc4cccnc43)cc2)c2ncccc2Cl)C1 (stereo not shown) , tested with skin hair follicles and sebaceous glands of rats.
Result: 2

Query: skin hair follicles and sebaceous glands of rats / number of rats with hair follicle and sebaceous gland grade + / "Nc1ccccc1-c1ccc(C(=O)N(c2ncccc2Cl)[C@@H]2CCCNC2)cc1" : value?
Result: 2

Source: patent US20240300945A1
